# Test system: SUM149PT spheroids with HUVEC/MSC, viability
# measurement notes: Anticancer human tumor SUM149PT cell line growth inhibition [GQUAD];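 note: spheroids exposed to drugs for seven days before readout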
# cond: curve of first compound; second compound 1 µM
readout kind: IC50

Ask | Give the measured IC50 of O=C(NO)c1cnc(N2CCN(S(=O)(=O)c3ccc4ccccc4c3)CC2)nc1 + CN(C)c1ccc(Nc2c3ccc(NC(=O)CCN4CCCC4)cc3nc3cc(NC(=O)CCN4CCCC4)ccc23)cc1 .
Reply | 0.314 µM

Ask | What IC50 value was documented for this molecule, CC(=O)O[C@H]1C(=O)[C@@]2(C)[C@H]([C@H](OC(=O)c3ccccc3)[C@]3(O)C[C@H](OC(=O)[C@H](O)[C@@H](NC(=O)c4ccccc4)c4ccccc4)C(C)=C1C3(C)C)[C@]1(OC(C)=O)CO[C@@H]1C[C@@H]2O + Cc1[nH]c2ccc(F)cc2c1-c1nc2c3cccnc3c3ncccc3c2[nH]1 ?
Reply | < 0.0316 µM

Ask | Request the reported IC50 associated with COc1cccc2c1C(=O)c1c(O)c3c(c(O)c1C2=O)CC(O)(C(=O)CO)CC3OC1CC(N)C(O)C(C)O1 (stereo not drawn) + Cc1cnc(CNC(=O)c2c(=O)c3ccc(N4CCCN(C)CC4)nc3n3c2sc2ccccc23)cn1
Reply | < 0.0316 µM

* * *

# Test system: SUM149PT spheroids with HUVEC/MSC, viability
# measurement notes: Anticancer human tumor SUM149PT cell line growth inhibition [GQUAD];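 note: spheroids exposed to drugs for seven days before readout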;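 for viability, T/C: percent viability relative to DMSO vehicle control taken as 100%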
# cond: second compound 0.316 µM; first compound 0.1 µM; stronger effect = lower value
readout kind: viability, T/C (%)
The response must be a number in % with no trailing unit.

Ask | // fetch SUM149PT spheroids with HUVEC/MSC, viability viability, T/C for CCCS(=O)(=O)Nc1ccc(F)c(C(=O)c2c[nH]c3ncc(-c4ccc(Cl)cc4)cc23)c1F + Cc1cnc(CNC(=O)c2c(=O)c3ccc(N4CCCN(C)CC4)nc3n3c2sc2ccccc23)cn1
Reply | 57.5

Ask | Request body: readout viability, T/C, system SUM149PT spheroids with HUVEC/MSC, viability, query Nc1ccn(C2OC(CO)C(O)C2(F)F)c(=O)n1 (configuration not stated) + Cc1cnc(CNC(=O)c2c(=O)c3ccc(N4CCCN(C)CC4)nc3n3c2sc2ccccc23)cn1 . Return the value.
Reply | 29.5

Ask | Query the reported viability, T/C for SUM149PT spheroids with HUVEC/MSC, viability; item: COc1ncnc(C2CC2)c1-c1ncc2cnn(Cc3ccc(-c4nc(C(F)(F)F)cn4C(C)C)cc3)c2n1 + CN(C)c1ccc(Nc2c3ccc(NC(=O)CCN4CCCC4)cc3nc3cc(NC(=O)CCN4CCCC4)ccc23)cc1
Reply | 90.5

Ask | Test system SUM149PT spheroids with HUVEC/MSC, viability; read-out viability, T/C; what value for CC1COCCN1c1cc(C2(S(C)(=N)=O)CC2)nc(-c2ccnc3[nH]ccc23)n1 (configuration not stated) + Cc1cnc(CNC(=O)c2c(=O)c3ccc(N4CCCN(C)CC4)nc3n3c2sc2ccccc23)cn1 ?
Reply | 48.9

Ask | State its viability, T/C on SUM149PT spheroids with HUVEC/MSC, viability: O=c1[nH]cc(F)c(=O)[nH]1 + Cc1cnc(CNC(=O)c2c(=O)c3ccc(N4CCCN(C)CC4)nc3n3c2sc2ccccc23)cn1
Reply | 61.2

Ask | What value of viability, T/C on SUM149PT spheroids with HUVEC/MSC, viability does O=C(c1cc(Cc2n[nH]c(=O)c3ccccc23)ccc1F)N1CCN(C(=O)C2CC2)CC1 + Cc1cnc(CNC(=O)c2c(=O)c3ccc(N4CCCN(C)CC4)nc3n3c2sc2ccccc23)cn1 have?
Reply | 58.5

Ask | Record lookup: for SUM149PT spheroids with HUVEC/MSC, viability, what viability, T/C belongs to O=C(c1cc(Cc2n[nH]c(=O)c3ccccc23)ccc1F)N1CCN(C(=O)C2CC2)CC1 + CN(C)c1ccc(Nc2c3ccc(NC(=O)CCN4CCCC4)cc3nc3cc(NC(=O)CCN4CCCC4)ccc23)cc1 ?
Reply | 93.5

* * *

# System: SUM149PT spheroids with HUVEC/MSC, viability
# measurement notes: Anticancer human tumor SUM149PT cell line growth inhibition [GQUAD];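 note: spheroids exposed to drugs for seven days before readout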;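 for viability, T/C: percent viability relative to DMSO vehicle control taken as 100%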
# cond: second compound 3.16 µM; first compound 1 µM; stronger effect = lower value
# Text: DNA G-quadruplex Stabilizer Agents in Combinations in Complex Spheroids A high-throughput screen of multi-cell type tumor spheroids was designed to identify active combinations of DNA G-quadruplex stabilizer agents and targeted small molecules. […] Compounds. […] If the clinical Cmax for an agent had not been determined, the highest concentration tested was 10 microM. […]
yes if viability, T/C is below 50%. no if not; exact matches included in no.

Ask | Take the molecule COc1cc(C2c3cc4c(cc3C(OC3OC5COC(C)OC5C(O)C3O)C3COC(=O)C23)OCO4)cc(OC)c1O (stereo not given) + Cc1cnc(CNC(=O)c2c(=O)c3ccc(N4CCCN(C)CC4)nc3n3c2sc2ccccc23)cn1 and say whether its viability, T/C is less than 50%.
Reply | yes

Ask | For this molecule, is viability, T/C lower than 50%? C=CC(=O)N1CCN(c2nc(=O)n(-c3c(C)ccnc3C(C)C)c3nc(-c4c(O)cccc4F)c(F)cc23)C(C)C1 (stereo not given) + CN(C)c1ccc(Nc2c3ccc(NC(=O)CCN4CCCC4)cc3nc3cc(NC(=O)CCN4CCCC4)ccc23)cc1
Reply | no

Ask | Threshold test, viability, T/C < 50%: CC(C)n1c(=O)n(C)c2cnc3cc(F)c(-c4ccc(OCCCN5CCCCC5)nc4)cc3c21 + CN(C)c1ccc(Nc2c3ccc(NC(=O)CCN4CCCC4)cc3nc3cc(NC(=O)CCN4CCCC4)ccc23)cc1
Reply | no

Ask | Does COc1ncnc(C2CC2)c1-c1ncc2cnn(Cc3ccc(-c4nc(C(F)(F)F)cn4C(C)C)cc3)c2n1 + Cc1cnc(CNC(=O)c2c(=O)c3ccc(N4CCCN(C)CC4)nc3n3c2sc2ccccc23)cn1 have viability, T/C strictly under 50%?
Reply | yes

Ask | Quick check: does Cc1cccc(N(C)C(=O)C2C(O)CCN2c2nc(C)cc(C(F)(F)F)c2C#N)c1 (stereo not given) + Cc1[nH]c2ccc(F)cc2c1-c1nc2c3cccnc3c3ncccc3c2[nH]1 have viability, T/C under 50%?
Reply | no

Ask | # check: viability, T/C < 50% for COc1cc(C2c3cc4c(cc3C(OC3OC5COC(C)OC5C(O)C3O)C3COC(=O)C23)OCO4)cc(OC)c1O (stereo not given) + CN(C)c1ccc(Nc2c3ccc(NC(=O)CCN4CCCC4)cc3nc3cc(NC(=O)CCN4CCCC4)ccc23)cc1
Reply | yes

Ask | viability, T/C strictly < 50% for this molecule? COc1ccc([C@@H](O)c2cc(-c3ncnc4cc(N5CCOCC5)ccc34)c(F)cc2Cl)nn1 + CN(C)c1ccc(Nc2c3ccc(NC(=O)CCN4CCCC4)cc3nc3cc(NC(=O)CCN4CCCC4)ccc23)cc1
Reply | yes

Ask | In plain terms, does C#Cc1c(F)ccc2cc(O)cc(-c3ncc4c(N5CC6CCC(C5)N6)nc(OCC56CCCN5CC(F)C6)nc4c3F)c12 (stereo not given) + Cc1cnc(CNC(=O)c2c(=O)c3ccc(N4CCCN(C)CC4)nc3n3c2sc2ccccc23)cn1 come in under 50% for viability, T/C?
Reply | yes

Ask | Is the reported viability, T/C for CC1COCCN1c1cc(C2(S(C)(=N)=O)CC2)nc(-c2ccnc3[nH]ccc23)n1 (stereo not given) + Cc1cnc(CNC(=O)c2c(=O)c3ccc(N4CCCN(C)CC4)nc3n3c2sc2ccccc23)cn1 strictly below 50%?
Reply | yes

Ask | In plain terms, does C#Cc1c(F)ccc2cc(O)cc(-c3ncc4c(N5CC6CCC(C5)N6)nc(OCC56CCCN5CC(F)C6)nc4c3F)c12 (stereo not given) + Cc1[nH]c2ccc(F)cc2c1-c1nc2c3cccnc3c3ncccc3c2[nH]1 come in under 50% for viability, T/C?
Reply | no

* * *

# Tested on: SUM149PT spheroids with HUVEC/MSC, viability
# measurement notes: Anticancer human tumor SUM149PT cell line growth inhibition [GQUAD];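 note: spheroids exposed to drugs for seven days before readout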;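 for viability, T/C: percent viability relative to DMSO vehicle control taken as 100%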
# cond: second compound 1 µM; first compound 0.00316 µM; stronger effect = lower value
# Text: DNA G-quadruplex Stabilizer Agents in Combinations in Complex Spheroids A high-throughput screen of multi-cell type tumor spheroids was designed to identify active combinations of DNA G-quadruplex stabilizer agents and targeted small molecules. […] Compounds. […] If the clinical Cmax for an agent had not been determined, the highest concentration tested was 10 microM. […]
readout kind: viability, T/C

Ask | Give the measured viability, T/C of Cc1[nH]c2ccccc2c1CCNCc1ccc(/C=C/C(=O)NO)cc1 + CN(C)c1ccc(Nc2c3ccc(NC(=O)CCN4CCCC4)cc3nc3cc(NC(=O)CCN4CCCC4)ccc23)cc1 .
Reply | 88.5%

Ask | Which value of viability, T/C has been reported for CCc1c2c(nc3ccc(O)cc13)-c1cc3c(c(=O)n1C2)COC(=O)[C@]3(O)CC + Cc1cnc(CNC(=O)c2c(=O)c3ccc(N4CCCN(C)CC4)nc3n3c2sc2ccccc23)cn1 in the records?
Reply | 41.2%

Ask | I am curious: what viability, T/C value has been reported for Cn1ncnc1[C@H]1c2n[nH]c(=O)c3cc(F)cc(c23)N[C@@H]1c1ccc(F)cc1 + CN(C)c1ccc(Nc2c3ccc(NC(=O)CCN4CCCC4)cc3nc3cc(NC(=O)CCN4CCCC4)ccc23)cc1 ?
Reply | 88.1%

Every entry's value here was drawn from PubChem BioAssay AID2060484.
